# testedTarget: TNF-α converting enzyme (TACE) (Homo sapiens)
# assayProcedure: TACE inhibition (fluorescent peptidyl substrate)
# Assay type: biochemical
# testSettings: read-out: TACE IC50
pIC50: −log10 of the molar value.
assayEndpoint: pIC50

CC#CCOc1ccc(S(=O)(=O)N2CCN(Cc3ccccc3)CCC2C(=O)NO)cc1 (centres unmarked) | 7.08
CC#CCOc1ccc(S(=O)(=O)NC(C(=O)NO)c2ccc(OCCc3scnc3C)cc2)cc1 (centres unmarked) | 7.16
CC#CCOc1ccc(S(=O)(=O)N(CCCN(CC)CC)C(C(=O)NO)C(C)C)cc1 (centres unmarked) | 6.81
CC#CCOc1ccc(S(=O)(=O)N2CCN(C(=O)N(C(C)C)C(C)C)CC2C(=O)NO)cc1 (centres unmarked) | 7.31
CC#CCOc1ccc(S(=O)(=O)N[C@@H](C(=O)NO)[C@@H](C)CC)cc1 | 8.17
CC#CCOc1ccc(S(=O)(=O)N[C@@H](C(=O)NO)C2CCC(O)CC2)cc1 (some centres unmarked) | 8.13

(a) CC#CCOc1ccc(S(=O)(=O)NC(C(=O)NO)C(C)(C)SCC(=O)OC(C)(C)C)cc1 (centres unmarked)
(b) CC#CCOc1ccc(S(=O)(=O)N2CCN(C)CCC2C(=O)NO)cc1 (centres unmarked)
(c) CC#CCOc1ccc(S(=O)(=O)N[C@@H](C(=O)NO)c2ccc(OCCNC(=O)OC(C)(C)C)cc2)cc1
QUERY: Rank ascending by pIC50. Put the labels in the requested order and list them out.
RESULT: a, c, b

====

# testedTarget: TNF-α converting enzyme (TACE) (Homo sapiens, UniProt P78536)
# Sequence (P78536 215-824, species assumed): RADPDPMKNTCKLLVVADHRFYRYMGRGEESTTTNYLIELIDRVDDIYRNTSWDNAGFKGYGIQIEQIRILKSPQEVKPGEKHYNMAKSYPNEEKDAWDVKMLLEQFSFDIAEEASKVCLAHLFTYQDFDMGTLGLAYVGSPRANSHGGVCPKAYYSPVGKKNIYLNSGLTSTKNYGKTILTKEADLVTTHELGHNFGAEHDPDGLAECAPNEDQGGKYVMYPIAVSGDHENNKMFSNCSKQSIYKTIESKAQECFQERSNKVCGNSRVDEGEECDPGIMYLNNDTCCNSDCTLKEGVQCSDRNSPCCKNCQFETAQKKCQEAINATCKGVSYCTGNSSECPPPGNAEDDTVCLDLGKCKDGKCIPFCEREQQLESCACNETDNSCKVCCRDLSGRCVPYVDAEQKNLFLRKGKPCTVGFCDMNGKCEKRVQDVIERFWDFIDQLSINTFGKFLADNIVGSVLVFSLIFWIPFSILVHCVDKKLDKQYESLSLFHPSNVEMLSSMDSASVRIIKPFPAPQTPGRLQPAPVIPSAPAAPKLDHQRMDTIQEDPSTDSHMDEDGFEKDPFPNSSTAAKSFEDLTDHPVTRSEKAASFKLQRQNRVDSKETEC
# assayProcedure: TACE inhibition (fluorescent peptidyl substrate)
# Assay type: biochemical
# testSettings: Table 10; read-out: TACE IC50
assayEndpoint: IC50 (nM)

Past entries and their recorded results:
CC(C)(C)OC(=O)NCCCCC#CCOc1ccc(S(=O)(=O)N2CCSC(C)(C)[C@@H]2C(=O)NO)cc1 | 199
CC(C)(C)OC(=O)NCCC#CCOc1ccc(S(=O)(=O)N2CCSC(C)(C)C2C(=O)NO)cc1 (centres unmarked) | 112
CC1(C)SCCN(S(=O)(=O)c2ccc(OCC#CCO)cc2)[C@H]1C(=O)NO | 20
CC1(C)SCCN(S(=O)(=O)c2ccc(OCC#CCCCN)cc2)[C@H]1C(=O)NO | 28
CC1(C)SCCN(S(=O)(=O)c2ccc(OCC#CCOCc3ccccc3)cc2)C1C(=O)NO (centres unmarked) | 160

(a) CC1(C)SCCN(S(=O)(=O)c2ccc(OCC#CCCN)cc2)C1C(=O)NO (centres unmarked)
(b) CC1(C)SCCN(S(=O)(=O)c2ccc(OCC#CCCCOC3CCCCO3)cc2)C1C(=O)NO (centres unmarked)
(c) CC1(C)SCCN(S(=O)(=O)c2ccc(OCC#CCF)cc2)[C@H]1C(=O)NO
QUERY: # desc sort on IC50 across 3 compounds Put the labels in the requested order and list them out.
RESULT: a, b, c

(1) CC(C)(C)OC(=O)NCC#CCOc1ccc(S(=O)(=O)N2CCSC(C)(C)C2C(=O)NO)cc1 (centres unmarked)
(2) CC1(C)SCCN(S(=O)(=O)c2ccc(OCC#Cc3ccccc3)cc2)[C@H]1C(=O)NO
(3) CC1(C)SCCN(S(=O)(=O)c2ccc(OCC#CCCCO)cc2)C1C(=O)NO (centres unmarked)
QUERY: Rank ascending by IC50. Put the labels in the requested order and list them out.
RESULT: 3, 1, 2

(P) CC1(C)SCCN(S(=O)(=O)c2ccc(OCC#CCCOC3CCCCO3)cc2)C1C(=O)NO (centres unmarked)
(Q) CC1(C)SCCN(S(=O)(=O)c2ccc(OCC#CCCCCO)cc2)[C@H]1C(=O)NO
QUERY: Given the two records P and Q , choose the one whose IC50 value is lower. // return label of chosen record
RESULT: Q
(Q: 53 nM, P: 87 nM)

====

# testedTarget: MMP-1 (Homo sapiens, UniProt P03956)
# Sequence (P03956 100-469): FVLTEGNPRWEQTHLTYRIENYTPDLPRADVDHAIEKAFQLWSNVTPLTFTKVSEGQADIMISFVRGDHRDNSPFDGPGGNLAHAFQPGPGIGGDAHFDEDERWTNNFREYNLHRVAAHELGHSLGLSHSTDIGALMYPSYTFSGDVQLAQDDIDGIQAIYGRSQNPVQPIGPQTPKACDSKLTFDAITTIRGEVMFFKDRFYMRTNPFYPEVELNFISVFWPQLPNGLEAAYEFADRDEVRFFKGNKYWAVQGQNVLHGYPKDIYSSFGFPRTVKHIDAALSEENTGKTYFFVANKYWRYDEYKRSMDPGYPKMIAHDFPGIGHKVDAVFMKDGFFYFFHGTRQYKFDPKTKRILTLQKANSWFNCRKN
# assayProcedure: MMP-1 inhibition (thiopeptide or fluorescent peptide substrate)
# Assay type: biochemical
# testSettings: read-out: MMP-1 IC50
Where a name gives a salt, the structure may show the parent alone.
assayEndpoint: IC50 (nM)

Past entries and their recorded results:
CC#CCOc1ccc(S(=O)(=O)N(C)C(C(=O)NO)C2CCCCC2)cc1 (centres unmarked) | 94
CC#CCOc1ccc(S(=O)(=O)N(C)C(C(=O)NO)c2ccc(OCCN3CCCC3)cc2)cc1 (centres unmarked) | 497
CC#CCOc1ccc(S(=O)(=O)N2CCN(C(=O)N3CCOCC3)CC2C(=O)NO)cc1 (centres unmarked) | 695
CC#CCOc1ccc(S(=O)(=O)N(Cc2cccnc2)C(C)C(=O)NO)cc1 (centres unmarked) [Example 33, Hydrochloride] | 239

(1) CC#CCOc1ccc(S(=O)(=O)N(C)C(C(=O)NO)c2ccc(OCCCN)cc2)cc1 (centres unmarked)
(2) CC#CCOc1ccc(S(=O)(=O)N(CC2CC2)C(C(=O)NO)C(C)C)cc1 (centres unmarked)
(3) CC#CCOc1ccc(S(=O)(=O)N(CCCc2ccccc2)C(C(=O)NO)C(C)C)cc1 (centres unmarked)
(4) CC#CCOc1ccc(S(=O)(=O)NC(C(=O)NO)C(C)(C)SCC)cc1 (centres unmarked)
QUERY: Rank ascending by IC50. Put the labels in the requested order and list them out.
RESULT: 2, 3, 1, 4
(2: 189 nM, 3: 308 nM, 1: 469 nM, 4: 852 nM)

====

# testedTarget: MMP-1 (Homo sapiens, UniProt P03956)
# assayProcedure: MMP-1 inhibition (thiopeptide or fluorescent peptide substrate)
# Format: biochemical
# testSettings: Table 10; read-out: MMP-1 IC50
assayEndpoint: IC50 (nM)

Past entries and their recorded results:
CC1(C)SCCN(S(=O)(=O)c2ccc(OCC#CCCCCN)cc2)[C@H]1C(=O)NO | 92
CN(CC#CCOc1ccc(S(=O)(=O)N2CCSC(C)(C)C2C(=O)NO)cc1)C(=O)OC(C)(C)C (centres unmarked) | 364
CC1(C)SCCN(S(=O)(=O)c2ccc(OCC#CCCOC3CCCCO3)cc2)C1C(=O)NO (centres unmarked) | 194
CC1(C)SCCN(S(=O)(=O)c2ccc(OCC#CCCCOC3CCCCO3)cc2)C1C(=O)NO (centres unmarked) | 98
CC1(C)SCCN(S(=O)(=O)c2ccc(OCC#CCCCN)cc2)[C@H]1C(=O)NO | 226
CC1(C)SCCN(S(=O)(=O)c2ccc(OCC#CCCCCO)cc2)[C@H]1C(=O)NO | 101

(I) CC(C)(C)OC(=O)NCC#CCOc1ccc(S(=O)(=O)N2CCSC(C)(C)C2C(=O)NO)cc1 (centres unmarked)
(II) CC(C)(C)OC(=O)NCCC#CCOc1ccc(S(=O)(=O)N2CCSC(C)(C)C2C(=O)NO)cc1 (centres unmarked)
QUERY: Which numeric IC50 is bigger, that of I or that of II ? // return label of chosen record
RESULT: II

====

# testedTarget: UniProt:P14780
# Sequence (P14780 94-707): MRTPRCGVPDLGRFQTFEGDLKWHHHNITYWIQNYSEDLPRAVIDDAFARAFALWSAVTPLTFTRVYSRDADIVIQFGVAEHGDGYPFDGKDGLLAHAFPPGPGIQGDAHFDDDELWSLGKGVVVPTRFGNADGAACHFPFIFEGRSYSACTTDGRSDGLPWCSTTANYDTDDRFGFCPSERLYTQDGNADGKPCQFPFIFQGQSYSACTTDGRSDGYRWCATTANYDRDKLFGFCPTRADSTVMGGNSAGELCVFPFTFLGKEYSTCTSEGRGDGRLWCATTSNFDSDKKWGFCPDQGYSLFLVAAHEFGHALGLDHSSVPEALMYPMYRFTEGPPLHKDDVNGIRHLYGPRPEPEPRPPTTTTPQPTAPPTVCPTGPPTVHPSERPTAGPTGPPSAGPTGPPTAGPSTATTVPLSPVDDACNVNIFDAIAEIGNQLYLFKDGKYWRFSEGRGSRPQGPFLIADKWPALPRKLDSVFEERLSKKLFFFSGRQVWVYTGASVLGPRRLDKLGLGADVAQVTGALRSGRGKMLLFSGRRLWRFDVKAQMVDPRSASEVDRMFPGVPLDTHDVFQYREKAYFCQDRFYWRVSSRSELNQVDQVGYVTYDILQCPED
# assayProcedure: MMP-9 inhibition (thiopeptide or fluorescent peptide substrate)
# Assay type: biochemical
# testSettings: read-out: MMP-9 IC50
pIC50: −log10 of the molar value.
assayEndpoint: pIC50

Past entries and their recorded results:
CC#CCOc1ccc(S(=O)(=O)N2CCN(C(=O)OC(C)(C)C)CC2C(=O)NO)cc1 (stereo not shown) | 7.62
CC#CCOc1ccc(S(=O)(=O)N2CCN(C(=O)OCc3ccccc3)CC2C(=O)NO)cc1 (stereo not shown) | 7.35

(A) CC#CCOc1ccc(S(=O)(=O)N(C)[C@@H](C(=O)NO)C2CCC(N(CC)CC)CC2)cc1 (stereo partly shown)
(B) CC#CCOc1ccc(S(=O)(=O)N(C)C(C(=O)NO)c2ccc(OCCN3CCNCC3)cc2)cc1 (stereo not shown)
QUERY: Which numeric pIC50 is bigger, that of A or that of B ? // return label of chosen record
RESULT: B
(B: 7.49, A: 6.74)

====

# testedTarget: UniProt:P78536
# assayProcedure: TACE inhibition (fluorescent peptidyl substrate)
# Assay type: biochemical
# testSettings: read-out: TACE IC50
assayEndpoint: IC50 (nM)

Past entries and their recorded results:
CC#CCOc1ccc(S(=O)(=O)N(Cc2cccnc2)[C@@H](C(=O)NO)C2CCCCC2)cc1 | 204
CC#CCOc1ccc(S(=O)(=O)N(CC(C)C)C(C(=O)NO)C(C)C)cc1 (centres unmarked) | 107
CC#CCOc1ccc(S(=O)(=O)N(CCN2CCOCC2)C(C(=O)NO)C(C)C)cc1 (centres unmarked) | 102
CC#CCOc1ccc(S(=O)(=O)N(C)C(C(=O)NO)c2ccc(OCCCNC(=O)OCc3ccccc3)cc2)cc1 (centres unmarked) | 109

(a) CC#CCOc1ccc(S(=O)(=O)N(CCCN2CCOCC2)C(C(=O)NO)C(C)C)cc1 (centres unmarked)
(b) CC#CCOc1ccc(S(=O)(=O)N(C)C(C(=O)NO)c2ccc(OCCCN)cc2)cc1 (centres unmarked)
QUERY: Given the two records a and b , choose the one whose IC50 value is lower. // return label of chosen record
RESULT: b
